Exercise: state measured pKd for each of the binders provided.
target: T1, human serum albumin (human, UniProt P02768 25-609); test: SPR Biacore 8K+ SCK, albumin on chip, pH 7.4
T1 construct: Immobilised on SPR chips; also added in solution in the FcRn occupancy assays; also called HSA; humanSA
Give only the number. pKd is defined as minus log10 of concentration in molar units.

Problem: Consider the binder Alb23 L59A (VHH, VHH alone) VHH: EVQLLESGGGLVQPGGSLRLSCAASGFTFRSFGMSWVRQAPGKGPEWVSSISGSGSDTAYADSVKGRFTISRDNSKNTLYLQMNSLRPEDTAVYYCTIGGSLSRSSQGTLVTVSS . State its measured pKd.
Result: 7.29

Problem: Give pKd for the following binder: Alb23 M34A (VHH, VHH alone) VHH: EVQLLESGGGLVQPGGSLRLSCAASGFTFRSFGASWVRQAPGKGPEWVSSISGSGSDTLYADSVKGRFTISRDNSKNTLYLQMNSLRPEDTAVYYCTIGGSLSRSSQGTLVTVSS
Result: 6.76

Problem: Give the measured pKd for Alb23 G99A (VHH, VHH alone) VHH: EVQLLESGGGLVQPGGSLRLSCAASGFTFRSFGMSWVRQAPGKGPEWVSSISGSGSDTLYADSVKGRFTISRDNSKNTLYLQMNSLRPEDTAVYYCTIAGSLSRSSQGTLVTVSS
Result: 7.00

Problem: Return pKd (reported value) for this binder: Alb23 G33A/S101A (VHH, VHH alone) VHH: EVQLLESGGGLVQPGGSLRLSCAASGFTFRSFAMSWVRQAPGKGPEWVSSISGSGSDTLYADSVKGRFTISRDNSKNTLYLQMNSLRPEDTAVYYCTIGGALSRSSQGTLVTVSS
Result: 6.94

Problem: Output pKd of Alb23 G100A (VHH, VHH alone) VHH: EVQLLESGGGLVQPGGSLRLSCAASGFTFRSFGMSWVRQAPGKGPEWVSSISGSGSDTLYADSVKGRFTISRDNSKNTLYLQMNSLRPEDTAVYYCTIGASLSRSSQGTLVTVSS
Result: 7.51
